Molecular target: human CYP1A1, CYP1A1 (gene 1543)
Assay: NVS_ADME_hCYP1A1: NovaScreen (NVS) CYP450-related Enzyme Activity (ADME) Assay for human CYP1A1 (AID 2283100)
Inconclusive results are not listed. The source made the active and inactive calls. Rule for the calls: active = hit-call score of the fitted dose curve at least 0.9, where 1 is the maximum; inconclusive = response in the unintended direction; inactive = score below 0.9.
Your answer must be one of the following: 1 (yes) = active, 0 (no) = inactive

Give the logged outcome of this assay for the following molecule: O=C(Nc1ccccc1)c1ccccc1I
0 (no)

How was CC(C)(C)C(O)(CCc1ccc(Cl)cc1)Cn1cncn1 (stereo not drawn) classified in this test?
0 (no)

Write down the call the test reported for this molecule. Item: CCCCCCCCn1sccc1=O
0 (no)

Can you look up the reported call for O=[N+]([O-])C(Br)(CO)CO for me?
1 (yes)

Recorded call for COP(=S)(OC)SCN1C(=O)c2ccccc2C1=O ?
1 (yes)

What is the recorded call for this molecule in the test? CCOC(=O)[C@]1(c2ccccc2)Oc2ccccc2[C@@H]1N
0 (no)

Could you check what this test reported for [Cl-].[Cl-].[Hg+2] ?
1 (yes)

What was the test verdict on Cc1cc(N=Nc2ccccc2C)ccc1N ?
1 (yes)
